- ASSAY_SUMMARY: Relaxation rate measurement (R1, R2) in PBS and in PBS solution of HSA
- Assay type: physicochemical
- CONDITIONS_USED: PBS pH 7.4, 64 MHz (1.5 T), 293K
MEASURED_PROPERTY: R2 (mM⁻¹ s⁻¹)
All answers are understood in mM⁻¹ s⁻¹, so give the number only.

Task item: Can you look up the measured R2 of NC1CCC(NC(=O)CN2CCN(CC(=O)[O-])CCN(CC(=O)[O-])CCN(CC(=O)[O-])CC2)CC1.[Gd+3] (stereo not shown) [2d] for me?
Reply: 3.68

Task item: Please give the result for O=C([O-])CN1CCN(CC(=O)[O-])CCN(CC(=O)NCC2CCC(C(=O)O)CC2)CCN(CC(=O)[O-])CC1.[Gd+3] (stereo not shown) [2b] too.
Reply: 3.98

Task item: Request: O=C([O-])CN1CCN(CC(=O)[O-])CCN([C@H](CO)[C@H](O)CO)CCN(CC(=O)[O-])CC1.[Gd+3] (racemic) [Gadovist, Gd-BT-DO3A, reference compound]
Reply: 4.27

Task item: Could you do the same for CNC[C@H](O)[C@@H](O)[C@H](O)[C@H](O)CO.O=C([O-])CN1CCN(CC(=O)[O-])CCN(CC(=O)O)CCN(CC(=O)[O-])CC1.[Gd+3] [Dotarem, Gd-DOTA, reference compound] , please?
Reply: 3.87

Task item: How about this compound: NCCNC(=O)C1CCC(CNC(=O)CN2CCN(CC(=O)[O-])CCN(CC(=O)[O-])CCN(CC(=O)[O-])CC2)CC1.[Gd+3] (stereo not shown) [2c]
Reply: 3.62

Task item: Same again, this time with O=C([O-])CN1CCN(CC(=O)[O-])CCN(CC(=O)NCC2CCCCC2)CCN(CC(=O)[O-])CC1.[Gd+3] [2e]
Reply: 4.52

Task item: Please give the result for CCOC(=O)C1CCC(CNC(=O)CN2CCN(CC(=O)[O-])CCN(CC(=O)[O-])CCN(CC(=O)[O-])CC2)CC1.[Gd+3] (stereo not shown) [2a] too.
Reply: 4.91
